- Organism: Rattus norvegicus
- test_summary: Open TG-GATES - Regimen: Single
- Assay type: toxicity, organism-based, Sprague-Dawley
- Design: regimen Single, gender Male, age 6 weeks
- run_conditions: in vivo, po, 0 mg/kg, 3 h, tissue Plasma, route gavage, dose level Control
Field: CRE. Provide a value for each of the compounds that follow.
Numeric only. Scale: mg/dL

Reported CRE, compound CC[C@H]1[C@@H]2C[C@H]3[C@@H]4N(C)c5ccccc5[C@]45C[C@@H]([C@@H]2[C@H]5O)N3[C@@H]1O [AJMALINE] : ____
0.4

Reported CRE, compound CCc1oc2ccccc2c1C(=O)c1cc(Br)c(O)c(Br)c1 [BENZBROMARONE] : ____
0.6

Reported CRE, compound OCCOCCN1CCN(C(c2ccccc2)c2ccc(Cl)cc2)CC1 (stereo not given) [HYDROXYZINE] : ____
0.2

Reported CRE, compound CCC1(c2ccccc2)C(=O)NC(=O)NC1=O [PHENOBARBITAL] : ____
0.4

Reported CRE, compound O=NN(CCCl)C(=O)NC1CCCCC1 [LOMUSTINE] : ____
0.6

Reported CRE, compound CC1=C(CC(=O)O)c2cc(F)ccc2/C1=C\c1ccc([S+](C)[O-])cc1 (stereo not given) : ____
0.2

Reported CRE, compound CC(C)N(CCC(C(N)=O)(c1ccccc1)c1ccccn1)C(C)C (stereo not given) [DISOPYRAMIDE] : ____
0.2

Reported CRE, compound CN(C)C(=N)N=C(N)N [METFORMIN] : ____
0.2

Reported CRE, compound CN(C)CCC=C1c2ccccc2COc2ccccc21 [DOXEPIN] : ____
0.2

Reported CRE, compound ClC(Cl)(Cl)Cl [CARBON TETRACHLORIDE] : ____
0.4

----------
- Species on record: Rattus norvegicus
- test_summary: Open TG-GATES - Regimen: Daily Repeat
- Format: toxicity, organism-based, Sprague-Dawley
- Design: regimen Daily Repeat, gender Male, age 6 weeks
- run_conditions: in vivo, po, 0 mg/kg, […], tissue Blood, route gavage, dose level Control, time 28 day
measured_attribute: Plat

Reported Plat, compound `CCc1oc2ccccc2c1C(=O)c1cc(Br)c(O)c(Br)c1` : ____
106.6 x10_4/uL

Reported Plat, compound CN(C)CCC=C1c2ccccc2COc2ccccc21 [DOXEPIN] : ____
102.4 x10_4/uL

Reported Plat, compound OCCOCCN1CCN(C(c2ccccc2)c2ccc(Cl)cc2)CC1 (stereo unspecified) [HYDROXYZINE] : ____
105.6 x10_4/uL

Reported Plat, compound `CCC1(c2ccccc2)C(=O)NC(=O)NC1=O` : ____
109 x10_4/uL

Reported Plat, compound CC1=C(CC(=O)O)c2cc(F)ccc2/C1=C\c1ccc([S+](C)[O-])cc1 (stereo unspecified) : ____
109 x10_4/uL

Reported Plat, compound `CN(C)C(=N)N=C(N)N` : ____
103.4 x10_4/uL

Reported Plat, compound `O=NN(CCCl)C(=O)NC1CCCCC1` : ____
107.1 x10_4/uL

Reported Plat, compound `CCCCc1oc2ccccc2c1C(=O)c1cc(I)c(OCCN(CC)CC)c(I)c1` : ____
111.1 x10_4/uL

Reported Plat, compound CC(C)N(CCC(C(N)=O)(c1ccccc1)c1ccccn1)C(C)C (stereo unspecified) [DISOPYRAMIDE] : ____
100.4 x10_4/uL

Reported Plat, compound `CC[C@H]1[C@@H]2C[C@H]3[C@@H]4N(C)c5ccccc5[C@]45C[C@@H]([C@@H]2[C@H]5O)N3[C@@H]1O` : ____
125.9 x10_4/uL

Reported Plat, compound ClC(Cl)(Cl)Cl [CARBON TETRACHLORIDE] : ____
120.7 x10_4/uL

----------
Field: log10 of TBIL. Provide a value for each of the molecules that follow.
- Species on record: Rattus norvegicus
- test_summary: Open TG-GATES - Regimen: Single
- Assay type: toxicity, organism-based, Sprague-Dawley
- Set-up: regimen Single, gender Male, age 6 weeks
- run_conditions: in vivo, po, 0 mg/kg, 6 h, tissue Plasma, route gavage, dose level Control
Friendly reminder: values = log10 of TBIL, unit mg/dL.

Reported log10 of TBIL, molecule CC1=C(CC(=O)O)c2cc(F)ccc2/C1=C\c1ccc([S+](C)[O-])cc1 (stereo not given) : ____
-1.52

Reported log10 of TBIL, molecule CC(C)N(CCC(C(N)=O)(c1ccccc1)c1ccccn1)C(C)C (stereo not given) [DISOPYRAMIDE] : ____
-2.40

Reported log10 of TBIL, molecule OCCOCCN1CCN(C(c2ccccc2)c2ccc(Cl)cc2)CC1 (stereo not given) [HYDROXYZINE] : ____
-1.24

Reported log10 of TBIL, molecule CN(C)CCC=C1c2ccccc2COc2ccccc21 [DOXEPIN] : ____
-1.22

Reported log10 of TBIL, molecule ClC(Cl)(Cl)Cl [CARBON TETRACHLORIDE] : ____
-0.70

Reported log10 of TBIL, molecule CN(C)C(=N)N=C(N)N [METFORMIN] : ____
-1.34

Reported log10 of TBIL, molecule CCc1oc2ccccc2c1C(=O)c1cc(Br)c(O)c(Br)c1 [BENZBROMARONE] : ____
-0.40

Reported log10 of TBIL, molecule O=NN(CCCl)C(=O)NC1CCCCC1 [LOMUSTINE] : ____
-0.52

Reported log10 of TBIL, molecule CC[C@H]1[C@@H]2C[C@H]3[C@@H]4N(C)c5ccccc5[C@]45C[C@@H]([C@@H]2[C@H]5O)N3[C@@H]1O [AJMALINE] : ____
-0.40

Reported log10 of TBIL, molecule CCC1(c2ccccc2)C(=O)NC(=O)NC1=O [PHENOBARBITAL] : ____
-1.00

----------
- Species on record: Rattus norvegicus
- test_summary: Open TG-GATES - Regimen: Daily Repeat
- Type: toxicity, organism-based, Sprague-Dawley
- Set-up: regimen Daily Repeat, gender Male, age 6 weeks
- run_conditions: in vivo, po, 0 mg/kg, […], tissue Blood, route gavage, dose level Control, time 7 day
So basically: is WBC under 100 x10_2/uL? Then True. Not under? Then False.

Please indicate whether the reported WBC of O=NN(CCCl)C(=O)NC1CCCCC1 [LOMUSTINE] is strictly below 100 x10_2/uL.
False

Please indicate whether the reported WBC of CCC1(c2ccccc2)C(=O)NC(=O)NC1=O [PHENOBARBITAL] is strictly below 100 x10_2/uL.
False

Please indicate whether the reported WBC of CC[C@H]1[C@@H]2C[C@H]3[C@@H]4N(C)c5ccccc5[C@]45C[C@@H]([C@@H]2[C@H]5O)N3[C@@H]1O [AJMALINE] is strictly below 100 x10_2/uL.
False

Please indicate whether the reported WBC of ClC(Cl)(Cl)Cl [CARBON TETRACHLORIDE] is strictly below 100 x10_2/uL.
False

Please indicate whether the reported WBC of CCc1oc2ccccc2c1C(=O)c1cc(Br)c(O)c(Br)c1 [BENZBROMARONE] is strictly below 100 x10_2/uL.
False

Please indicate whether the reported WBC of CC(C)N(CCC(C(N)=O)(c1ccccc1)c1ccccn1)C(C)C (stereo unspecified) [DISOPYRAMIDE] is strictly below 100 x10_2/uL.
True

----------
- Species on record: Rattus norvegicus
- test_summary: Open TG-GATES - Regimen: Daily Repeat
- Type: toxicity, organism-based, Sprague-Dawley
- Parameters: regimen Daily Repeat, gender Male, age 6 weeks
- run_conditions: in vivo, po, 0 mg/kg, […], tissue Plasma, route gavage, dose level Control, time 7 day
Field: AST. Provide a value for each of the molecules that follow.
Numeric only. Scale: IU/L

Reported AST, molecule CC1=C(CC(=O)O)c2cc(F)ccc2/C1=C\c1ccc([S+](C)[O-])cc1 (stereo unspecified) : ____
69.8

Reported AST, molecule CC(C)N(CCC(C(N)=O)(c1ccccc1)c1ccccn1)C(C)C (stereo unspecified) [DISOPYRAMIDE] : ____
70.8

Reported AST, molecule CN(C)CCC=C1c2ccccc2COc2ccccc21 [DOXEPIN] : ____
74.4

Reported AST, molecule `CN(C)C(=N)N=C(N)N` : ____
69.6

Reported AST, molecule `O=NN(CCCl)C(=O)NC1CCCCC1` : ____
59

Reported AST, molecule `CCc1oc2ccccc2c1C(=O)c1cc(Br)c(O)c(Br)c1` : ____
60.6

Reported AST, molecule ClC(Cl)(Cl)Cl [CARBON TETRACHLORIDE] : ____
62.4

Reported AST, molecule `CCCCc1oc2ccccc2c1C(=O)c1cc(I)c(OCCN(CC)CC)c(I)c1` : ____
62.6

Reported AST, molecule `CC[C@H]1[C@@H]2C[C@H]3[C@@H]4N(C)c5ccccc5[C@]45C[C@@H]([C@@H]2[C@H]5O)N3[C@@H]1O` : ____
67

Reported AST, molecule OCCOCCN1CCN(C(c2ccccc2)c2ccc(Cl)cc2)CC1 (stereo unspecified) [HYDROXYZINE] : ____
68.4

Reported AST, molecule `CCC1(c2ccccc2)C(=O)NC(=O)NC1=O` : ____
62
